Reference source for all entries: the supplement of paper PMC10567573

B1: C8orf76 (parent)
chain: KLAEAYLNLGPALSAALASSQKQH

variants of: B1; experiment: protein stability index of a GFP-peptide fusion (GPS, HEK-293T) (PSI 1-6); higher = more stable; details: c terminus: a fixed tail appended;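 further: lentivirally expressed fusions sorted by FACS into six bins by GFP to DsRed ratio, PSI derived from sequencing read proportions per bin multiplied by bin number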
Label yes for high-side protein stability index (at or above 3) and no for low-side protein stability index (below it).

# mutation spec, category
records = [
    ("P11Q", "no"),
]

stdin: Quick check: does K1S have protein stability index greater than or equal to 3?
stdout: no

stdin: Quick check: does L2I have protein stability index greater than or equal to 3?
stdout: no

stdin: Quick check: does K22Q have protein stability index greater than or equal to 3?
stdout: no

stdin: Quick check: does A5R have protein stability index greater than or equal to 3?
stdout: no

stdin: Quick check: does Y6P have protein stability index greater than or equal to 3?
stdout: yes

stdin: Quick check: does Q23E have protein stability index greater than or equal to 3?
stdout: yes

stdin: Quick check: does S20K have protein stability index greater than or equal to 3?
stdout: no

stdin: Quick check: does K1W have protein stability index greater than or equal to 3?
stdout: yes
